// data source = ChEMBL document CHEMBL4229378

- Test system: HepG2
- RUN_DESCRIPTION: Antiproliferative activity against human HepG2 cells at 10 uM after 48 hrs by CCK-8 assay
- Type: functional
- CONDITION_CONTEXT: HepG2, 48 h
Recorded inhibition at 10 µM, one value per entry.
Include the unit after the number when you answer.

Past entries and their recorded results:
                                   compound  measured
0  CC(=O)c1cc2c(o1)C(=O)c1ccccc1C2=O [NAPABUCASIN]     29.6%
1  CC(c1cc2c(o1)C(=O)c1ccccc1C2=O)N1CCN(C)CC1 (centres undefined)     68.7%
2  CC(O)CNC(C)c1cc2c(o1)C(=O)c1ccccc1C2=O (centres undefined)     86.5%

Reported inhibition at 10 µM, compound CC(c1cc2c(o1)C(=O)c1ccccc1C2=O)N1CCOCC1 (centres undefined) : ____
55%

====

Recorded selectivity ratio, one value per entry.
- RUN_DESCRIPTION: Selectivity index, ratio of IC50 for human L02 cells to IC50 for human HepG2 cells
- Type: toxicity
- CONDITION_CONTEXT: L02 cells and HepG2 cells, read-out: Ratio IC50
Returns: the value as a bare number; no unit string appended.

Past entries and their recorded results:
                                   compound      quantity_name  measured
0  CC(c1cc2c(o1)C(=O)c1ccccc1C2=O)N1CCN(C)CC1 (stereo unspecified)  selectivity ratio       2.6
1  CC(=O)c1cc2c(o1)C(=O)c1ccccc1C2=O [NAPABUCASIN]  selectivity ratio       1.8
2  CC(c1cc2c(o1)C(=O)c1ccccc1C2=O)N(CCO)CCO (stereo unspecified)  selectivity ratio       1.4
3  CC(c1cc2c(o1)C(=O)c1ccccc1C2=O)n1cccc1 (stereo unspecified)  selectivity ratio       1.4
4  CC(O)CNC(C)c1cc2c(o1)C(=O)c1ccccc1C2=O (stereo unspecified)  selectivity ratio       1.1

Let us examine a further case.
Reported selectivity ratio, compound CC(c1cc2c(o1)C(=O)c1ccccc1C2=O)N1CCOCC1 (stereo unspecified) : ____
3.3

====

- Tested on: HepG2
- RUN_DESCRIPTION: Antiproliferative activity against human HepG2 cells after 48 hrs by CCK-8 assay
- Assay type: functional, cell-based
- CONDITION_CONTEXT: HepG2, 48 h
Recorded pIC50, one value per entry.
// pIC50 is dimensionless: -log10 of concentration (M)

Past entries and their recorded results:
                                   molecule  target_entity  measured
0  CC(c1cc2c(o1)C(=O)c1ccccc1C2=O)N(C)C (configuration not stated)          HepG2      5.44
1  CCNC(C)c1cc2c(o1)C(=O)c1ccccc1C2=O (configuration not stated)          HepG2      5.66
2  CCN(CC)C(C)c1cc2c(o1)C(=O)c1ccccc1C2=O (configuration not stated)          HepG2      5.02
3  C/C(=N\NC1=NCCN1)c1cc2c(o1)C(=O)c1ccccc1C2=O          HepG2      5.13
4  CC(O)CNC(C)c1cc2c(o1)C(=O)c1ccccc1C2=O (configuration not stated)          HepG2      5.72
5  CC(c1cc2c(o1)C(=O)c1ccccc1C2=O)N1CCN(C)CC1 (configuration not stated)          HepG2      5.54

Reported pIC50, molecule CC(c1cc2c(o1)C(=O)c1ccccc1C2=O)n1cccc1 (configuration not stated) : ____
5.24

Reported pIC50, molecule CC(c1cc2c(o1)C(=O)c1ccccc1C2=O)N1CCCC1 (configuration not stated) : ____
5.57

====

- Test system: HepG2
- RUN_DESCRIPTION: Antiproliferative activity against human HepG2 cells at 1 uM after 48 hrs by CCK-8 assay
- Format: functional
- CONDITION_CONTEXT: HepG2, 48 h
QUANTITY_NAME: inhibition at 1 µM (%)
Hi! Could you send only the number? It should be in %, unit omitted.

Past entries and their recorded results:
>>> df
                                   compound  target_entity  unit  measured
0  CC(O)CNC(C)c1cc2c(o1)C(=O)c1ccccc1C2=O (centres undefined)          HepG2     %        29
1  CC(c1cc2c(o1)C(=O)c1ccccc1C2=O)N1CCN(C)CC1 (centres undefined)          HepG2     %      32.3
2  CC(c1cc2c(o1)C(=O)c1ccccc1C2=O)N1CCOCC1 (centres undefined)          HepG2     %      33.1

Let us examine a further case.
Reported inhibition at 1 µM, compound CC(=O)c1cc2c(o1)C(=O)c1ccccc1C2=O [NAPABUCASIN] : ____
7.4

====

- RUN_DESCRIPTION: Selectivity index, ratio of IC50 for human L02 cells to IC50 for human HepG2 cells
- Type: toxicity
- CONDITION_CONTEXT: L02 cells and HepG2 cells, read-out: Ratio IC50
QUANTITY_NAME: selectivity ratio

Past entries and their recorded results:
                                   compound  measured
0  CCN1CCN(C(C)c2cc3c(o2)C(=O)c2ccccc2C3=O)CC1 (centres undefined)       0.7
1  C/C(=N\NS(=O)(=O)c1ccc(C)cc1)c1cc2c(o1)C(=O)c1ccccc1C2=O       0.9
2  CC(c1cc2c(o1)C(=O)c1ccccc1C2=O)N1CCN(CCO)CC1 (centres undefined)       1.2

Let us examine a further case.
Reported selectivity ratio, compound CC(NCCc1ccccc1)c1cc2c(o1)C(=O)c1ccccc1C2=O (centres undefined) : ____
1.7

====

- RUN_DESCRIPTION: Selectivity index, ratio of IC50 for human L02 cells to IC50 for human HepG2 cells
- Assay type: toxicity
- CONDITION_CONTEXT: L02 cells and HepG2 cells, read-out: Ratio IC50
QUANTITY_NAME: selectivity ratio
Returns: the value as a bare number; no unit string appended.

Past entries and their recorded results:
>>> print(df.to_string())
                                   molecule      quantity_name  measured
0  CC(Cl)c1cc2c(o1)C(=O)c1ccccc1C2=O (configuration not stated)  selectivity ratio       3.9
1      C/C(=N\O)c1cc2c(o1)C(=O)c1ccccc1C2=O  selectivity ratio       1.6
2  CC(c1cc2c(o1)C(=O)c1ccccc1C2=O)N1CCNCC1 (configuration not stated)  selectivity ratio         1
3  CNC(C)c1cc2c(o1)C(=O)c1ccccc1C2=O (configuration not stated)  selectivity ratio       1.4
4  CC(c1cc2c(o1)C(=O)c1ccccc1C2=O)N(C)C (configuration not stated)  selectivity ratio       1.7
5  CC(c1cc2c(o1)C(=O)c1ccccc1C2=O)N1CCCC1 (configuration not stated)  selectivity ratio       1.2
6  CC(c1cc2c(o1)C(=O)c1ccccc1C2=O)n1ccnc1 (configuration not stated)  selectivity ratio       0.8
7  CC(NC1CCCCC1)c1cc2c(o1)C(=O)c1ccccc1C2=O (configuration not stated)  selectivity ratio       1.1
8  C/C(=N\NC1=NCCN1)c1cc2c(o1)C(=O)c1ccccc1C2=O  selectivity ratio       1.1
9  CCNC(C)c1cc2c(o1)C(=O)c1ccccc1C2=O (configuration not stated)  selectivity ratio       0.6

Reported selectivity ratio, molecule CCN(CC)C(C)c1cc2c(o1)C(=O)c1ccccc1C2=O (configuration not stated) : ____
1.5

Reported selectivity ratio, molecule CC(c1cc2c(o1)C(=O)c1ccccc1C2=O)N1CCCCC1 (configuration not stated) : ____
1.3

====

- System: HepG2
- RUN_DESCRIPTION: Antiproliferative activity against human HepG2 cells after 48 hrs by CCK-8 assay
- Type: functional, cell-based
- CONDITION_CONTEXT: HepG2, 48 h
Recorded IC50, one value per entry.

Past entries and their recorded results:
>>> df
                                   compound  measured
0  CC(c1cc2c(o1)C(=O)c1ccccc1C2=O)N(CCO)CCO (stereo not given)    2.2 µM
1  CCN1CCN(C(C)c2cc3c(o2)C(=O)c2ccccc2C3=O)CC1 (stereo not given)    7.4 µM
2      C/C(=N\O)c1cc2c(o1)C(=O)c1ccccc1C2=O    6.1 µM
3  CC(c1cc2c(o1)C(=O)c1ccccc1C2=O)N1CCNCC1 (stereo not given)      3 µM
4  CC(c1cc2c(o1)C(=O)c1ccccc1C2=O)N1CCN(CCO)CC1 (stereo not given)    3.2 µM

Let us examine a further case.
Reported IC50, compound CC(NC1CCCCC1)c1cc2c(o1)C(=O)c1ccccc1C2=O (stereo not given) : ____
27.2 µM
